- Target or system: glutathione-S-transferase (GST) tagged LXRalpha LBD (ligand binding domain) (Homo sapiens)
- Construct: purchased Invitrogen pv4655
- Protocol notes: LanthaScreen TR-FRET Liver X Receptor Coactivator Assay, co-activator recruitment to LXRalpha LBD
- Type: biochemical
- Measurement conditions: potency (Inflection Point, IP), co-activator recruitment to LXRalpha LBD, in relation to T0901317
Reported endpoint: LXR alpha IP (nM)

CCc1cccc([C@@](O)(C(=O)N2CCC(CC3CCN(c4ccc(C(=O)N(C)C)cc4)CC3)CC2)C(F)(F)F)c1 [Example 2-141]    NO IP
CCOc1cccc([C@@](O)(C(=O)N2CCC(CC3CN(c4ccc(C(=O)N(C)C)c(C5CC5)n4)C3)CC2)C(F)(F)F)c1 [Example 7-17]    NO IP
CNC(=O)c1ccc(N2CCC(CC3CCN(C(=O)C(O)(c4cccc(Cl)c4)C(F)(F)F)CC3)CC2)cc1Cl (stereo not drawn) [Example 7-129]    NO IP

====

- Target or system: glutathione-S-transferase (GST) tagged LXRalpha LBD (ligand binding domain) (Homo sapiens, UniProt Q13133)
- Construct: purchased Invitrogen pv4655
- Sequence (Q13133 209-447 limits assumed): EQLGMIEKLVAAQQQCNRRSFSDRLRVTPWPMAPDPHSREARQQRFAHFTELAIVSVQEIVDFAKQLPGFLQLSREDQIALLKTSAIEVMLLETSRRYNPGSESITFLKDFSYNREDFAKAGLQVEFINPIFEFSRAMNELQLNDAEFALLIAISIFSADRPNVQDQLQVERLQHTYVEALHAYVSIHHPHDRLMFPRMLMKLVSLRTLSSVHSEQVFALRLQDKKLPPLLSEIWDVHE
- Protocol notes: LanthaScreen TR-FRET Liver X Receptor Coactivator Assay, co-activator recruitment to LXRalpha LBD
- Format: biochemical
- Measurement conditions: efficacy at max dose, in relation to reference dual agonist T0901317; read-out: LXR alpha Activity @ max dose (%)
Reported endpoint: Emax (%)
Give just the number in %; leave the unit off.

CN(C)C(=O)c1ccc(N2CCC(CC3CCN(C(=O)[C@](N)(c4ccccc4)C(F)(F)F)CC3)CC2)cc1Cl (stereo in doubt)    21
CN(C)C(=O)c1ccc(N2CCC(CC3CCN(C(=O)C4(c5ccccc5)CCCC4)CC3)CC2)cc1Cl    0
CN(C)C(=O)c1ccc(N2CCC(CC3CCN(C(=O)[C@](O)(c4cccc(Br)c4)C(F)(F)F)CC3)CC2)cc1Cl    26
O=C(c1ccc(N2CCC(CC3CCN(C(=O)[C@](O)(c4ccccc4)C(F)(F)F)CC3)CC2)cc1Cl)N1CC[C@@H](CO)C1    24

Which Emax is listed for Cc1cc(N2CCC(CC3CN(C(=O)[C@](O)(c4cc(F)cc(Cl)c4)C(F)(F)F)C3)CC2)ccc1C(=O)N(C)C ?
40

Any idea what Emax was measured for CCOc1cccc(C(O)(C(=O)N2CCC(CC3CCN(c4ccc(C(=O)N(C)C)c(Cl)n4)CC3)CC2)C(F)(F)F)c1 (stereo not drawn) ?
6

====

- Target or system: glutathione-S-transferase (GST) tagged LXRalpha LBD (ligand binding domain) (Homo sapiens)
- Construct: purchased Invitrogen pv4655
- Protocol notes: LanthaScreen TR-FRET Liver X Receptor Coactivator Assay, co-activator recruitment to LXRalpha LBD
- Assay type: biochemical
- Measurement conditions: potency (Inflection Point, IP), co-activator recruitment to LXRalpha LBD, in relation to T0901317
Reported endpoint: LXR alpha IP (nM)

Some solved entries appear below for comparison.
COc1cccc([C@@](O)(C(=O)N2CCC(CC3CCN(c4ccc(C(=O)N(C)C)cc4)CC3)CC2)C(F)(F)F)c1 [Example 2-124]    NO IP
CCc1cccc([C@@](O)(C(=O)N2CCC(CC3CCN(c4ccc(C(=O)NC)c(Cl)c4)CC3)CC2)C(F)(F)F)c1    NO IP
CC(C)Oc1cccc([C@@](O)(C(=O)N2CCC(C)(CC3CCN(c4ccc(C(=O)N(C)C)c(Cl)c4)CC3)CC2)C(F)(F)F)c1    NO IP
COc1cc(Cl)cc([C@@](O)(C(=O)N2CCC(C)(CC3CCN(c4ccc(C(=O)N(C)C)c(Cl)c4)CC3)CC2)C(F)(F)F)c1    NO IP
Cc1cccc(C(O)(C(=O)N2CCC(CC3CCN(c4ccc(C(=O)N(C)C)c(C)n4)CC3)CC2)C(F)(F)F)c1 (stereo not shown)    NO IP
CN(C)C(=O)c1ccc(N2CCC(CC3CN(C(=O)[C@](O)(c4cccc(OC(F)(F)F)c4)C(F)(F)F)C3)CC2)cc1Cl    NO IP
COc1cccc(C(O)(C(=O)N2CCC(CCC3CCN(c4ccc(C(=O)N(C)C)c(Cl)c4)CC3)CC2)C(F)(F)F)c1 (stereo not shown)    NO IP
CCOc1cccc([C@@](O)(C(=O)N2CCC(C)(CC3CCN(c4ccc(C(=O)N(C)C)c(Cl)c4)CC3)CC2)C(F)(F)F)c1    NO IP
Cc1nc(N2CCC(CC3CCN(C(=O)[C@](O)(c4cc(Cl)cc(Cl)c4)C(F)(F)F)CC3)CC2)ccc1C(=O)N(C)C    NO IP
CCc1cccc([C@@](O)(C(=O)N2CC(CC3CCN(c4ccc(C(=O)N(C)C)c(Cl)n4)CC3)C2)C(F)(F)F)c1    NO IP

I would be grateful if you could share the reported LXR alpha IP (nM) for CCc1cccc([C@@](O)(C(=O)N2CCC(CC3CCN(c4ccc(C(=O)N(C)C)c(C)c4)CC3)CC2)C(F)(F)F)c1 .
NO IP

Name the recorded LXR alpha IP (nM) for CN(C)C(=O)c1ccc(N2CCC(OC3CCN(C(=O)[C@](O)(c4ccccc4)C(F)(F)F)CC3)CC2)cc1Cl .
NO IP

Please look up its LXR alpha IP (nM): CN(C)C(=O)c1ccc(N2CCC(CC3CCN(C(=O)C(F)(F)c4ccc(F)cc4)CC3)CC2)nc1Cl
NO IP

====

- Target or system: glutathione-S-transferase (GST) tagged LXRbeta LBD (ligand binding domain) (Homo sapiens, UniProt P55055)
- Construct: purchased Invitrogen pv4658.pps
- Sequence (P55055 222-460 limits assumed): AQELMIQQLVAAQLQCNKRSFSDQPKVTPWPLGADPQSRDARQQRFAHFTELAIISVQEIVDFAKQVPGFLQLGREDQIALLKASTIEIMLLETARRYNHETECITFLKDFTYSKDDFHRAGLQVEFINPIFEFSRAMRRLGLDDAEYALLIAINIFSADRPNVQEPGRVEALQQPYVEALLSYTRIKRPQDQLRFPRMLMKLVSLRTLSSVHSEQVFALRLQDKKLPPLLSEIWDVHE
- Protocol notes: LanthaScreen TR-FRET Liver X Receptor Coactivator Assay, co-activator recruitment to LXRbeta LBD
- Assay type: biochemical
- Measurement conditions: efficacy at max dose, in relation to reference dual agonist T0901317; read-out: LXR beta Activity @ max dose (%)
Classes based on Emax: zone 1 = under 60%, zone 2 = from 60% up to 90%, zone 3 = 90% and over

Examples from the recorded data:
CN(C)C(=O)c1ccc(N2CCC(CC3CCN(C(=O)[C@](N)(c4cc(Cl)cc(Cl)c4)C(F)(F)F)CC3)CC2)cc1Cl    zone 3
CC(C)Oc1cccc(C(O)(C(=O)N2CCC(CC3CCN(c4ccc(C(=O)N(C)C)c(Cl)n4)CC3)CC2)C(F)(F)F)c1 (stereo not shown)    zone 1

// bin(item) where item = CN(C)C(=O)c1ccc(N2CCC(CC3CCN(C(=O)[C@](O)(c4cccc(OC(F)(F)F)c4)C(F)(F)F)CC3)CC2)nc1Cl
zone 2

Lab note: which band did CN(C)C(=O)c1ccc(N2CCC(CC3CCN(C(=O)[C@](O)(c4cc(F)cc(Cl)c4)C(F)(F)F)CC3)CC2)cc1 land in?
zone 3

Field: class (Emax) — entry: CN(C)C(=O)c1ccc(N2CCC(CC3CCN(C(=O)[C@](O)(c4ccccc4)C(F)(F)F)C3)CC2)cc1Cl (stereo partly shown)
zone 2

Dear colleague, I would appreciate it if you could identify the bin for CN(C)C(=O)c1ccc(N2CCC(CC3(C)CCN(C(=O)[C@](O)(c4cccc(F)c4)C(F)(F)F)CC3)CC2)cc1Cl and reply at your convenience.
zone 2

Returns: class label. Input: COc1cc(F)cc(C(O)(C(=O)N2CCC(CC3CCN(c4ccc(C(=O)N(C)C)c(Cl)n4)CC3)CC2)C(F)(F)F)c1 (stereo not shown)
zone 2

Lab note: which band did O=C(c1ccc(N2CCC(CC3CCN(C(=O)[C@](O)(c4cc(Cl)cc(Cl)c4)C(F)(F)F)CC3)CC2)cc1Cl)N1CCC[C@H]1CO land in?
zone 1

Which class is correct for the following molecule? CCOc1cccc([C@@](O)(C(=O)N2CCC(CC3CCN(c4ccc(C(=O)N(C)C)cc4)CC3)CC2)C(F)(F)F)c1
zone 1

Quick check: band for CN(C)C(=O)c1ccc(N2CCC(CC3CCN(C(=O)C(N)(c4ccccc4)C(F)(F)F)CC3)CC2)nc1Cl (stereo not shown)
zone 3

Could you place CCOc1cccc([C@@](O)(C(=O)N2CCC(CC3CCN(c4ccc(C(=O)N(C)C)c(Cl)n4)CC3)CC2)C(F)(F)F)c1 in its proper category? Many thanks.
zone 1

Hi, small favor: classify CN(C)C(=O)c1ccc(N2CCC(CC3CCN(C(=O)C4(c5ccccc5Cl)CC4)CC3)CC2)nc1Cl by its Emax when you get a moment.
zone 3

Which class does COc1cccc([C@@](O)(C(=O)N2CCC(CC3(C)CCN(c4ccc(C(=O)N(C)C)c(C)n4)CC3)CC2)C(F)(F)F)c1 fall in?
zone 2
